Measured Target: T1, BCMA on BCMA-positive NCI-H929, ARP-1 and U266B1 cells (human, UniProt Q02223 1-184)
T1 construct: they are human cell lines; also called B-cell maturation antigen; TNFRSF17
T1 sequence: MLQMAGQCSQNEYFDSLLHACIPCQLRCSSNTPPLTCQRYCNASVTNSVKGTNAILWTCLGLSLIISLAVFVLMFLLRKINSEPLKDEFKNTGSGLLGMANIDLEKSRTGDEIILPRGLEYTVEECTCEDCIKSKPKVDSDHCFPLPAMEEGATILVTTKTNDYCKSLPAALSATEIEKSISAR
Measurement Protocol: FACS, NCI-H929 cells
Readout Label: Bmax (MFI)
Please state the figure in MFI; there is no need to write the unit.

10E10 (antibody, V domains shown, chicken HybriFree-derived antibody; also called Antibody 46) VH: AVTLDESGGGLQTPGGGLSLVCKASGFTFSSYGMGWMRQAPGKGLEFVARINSGGSSYTDYGSAVKGRATISRDDGQSTVRLQLNNLRAEDTGIYYCTRGGGGASIDGWGHGTEVIVSS VL: ALTQPSSVSANPGETVKITCSGGGNYAGSYYYGWYQQKSPGSAPLTVIYNSNNRPSDIPSRFSGSLSGSTGTLTITGVRAEDEAVYFCGGFDSSTDAIFGAGTTLTVL = 3440

Consider now this further binder.
Need Bmax (MFI), item 9A5 (antibody, V domains shown, chicken HybriFree-derived antibody; also called Antibody 42) VH: AVTLDESGGGLQTPGGAVSLVCKASGFSISDYGMGWMRQAPGKGLQYVARIDHDGRYTDYGAVVKGRATISRDNGQSTVRLQLNNLRAEDTGTYYCTRGGGAASIDTWGHGTEVIVSS VL: ALTQPSSVSANPGETVKITCSGGGNYVGGYYYGWYQQKAPGSALVTLIYNNNNRPSNIPSRFSGSTSGSTSTLTITGVRAEDEAVYFCGSFDSSTDAIFGAGTTLTVL
19700

These entries and their values trace back to patent US20240368295A1.
